# Tested on: 855422-203-R-J1-PDC complex spheroids, viability;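 note: spheroids exposed to drugs for seven days before readout; 100% = DMSO vehicle control wells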
# assay-method-text: Anticancer human tumor 855422-203-R-J1-PDC patient-derived bladder carcinoma cell line growth inhibition [CLK]
# experimental-conditions: second compound 0.1 µM; first compound 10 µM; hits give low values
reported-endpoint: viability, T/C

| molecule | viability, T/C |
| --- | --- |
| CCCS(=O)(=O)Nc1ccc(F)c(C(=O)c2c[nH]c3ncc(-c4ccc(Cl)cc4)cc23)c1F + CN1CCN(c2cc(C(=O)Nc3cc4cc(-c5cnn(C)c5)ccc4cn3)ccn2)CC1 | 2.76% |
| COc1cccc2c1C(=O)c1c(O)c3c(c(O)c1C2=O)CC(O)(C(=O)CO)CC3OC1CC(N)C(O)C(C)O1 (stereo not given) + CNC(=O)c1ccc(Nc2nc(OC3CCCC3)c3c(-c4ccc5nc(C)oc5c4)c[nH]c3n2)c(OC)c1 | 0.51% |
| Nc1ccn(C2OC(CO)C(O)C2(F)F)c(=O)n1 (stereo not given) + CNC(=O)c1ccc(Nc2nc(OC3CCCC3)c3c(-c4ccc5nc(C)oc5c4)c[nH]c3n2)c(OC)c1 | 5.69% |
| CC(Nc1ccc2c(c1)OCCn1cc(N3C(=O)OCC3C(F)F)nc1-2)C(N)=O (stereo not given) + CN1CCN(c2cc(C(=O)Nc3cc4cc(-c5cnn(C)c5)ccc4cn3)ccn2)CC1 | 13.7% |

# ---- query molecule ----
Problem: Fill in: viability, T/C of O=C(c1cc(Cc2n[nH]c(=O)c3ccccc23)ccc1F)N1CCN(C(=O)C2CC2)CC1 + CNC(=O)c1ccc(Nc2nc(OC3CCCC3)c3c(-c4ccc5nc(C)oc5c4)c[nH]c3n2)c(OC)c1 is ___
Result: 45.1%

These data points were gathered from PubChem BioAssay AID2060609.
